Below, each entry is listed with its recorded IC50.
test system: IL-1β production in PMA-differentiated THP-1 cells; experiment: IL-1β production in PMA-differentiated THP-1 cells stimulated with gramicidin (hTHP-1 assay, 2% fetal bovine serum; Procedures 1-3); assay type: cell-based, human; conditions: Homo sapiens, THP-1, hTHP-1 assay containing 2% fetal bovine serum; class symbols; read-out: hTHP-1 IC50 (Average IC50 of compounds in hTHP-1 assay)

Please review the entries below; each comes with its answer.
1. CC(C)(O)c1cc(F)c(S(N)(=O)=NC(=O)Nc2c3c(c(F)c4c2CCC4)CCC3)s1 (stereo not shown) :: 8 to 40 nM
2. CC(C)c1cc(C#N)c(F)c(C(C)C)c1NC(=O)NS(=N)(=O)c1sc(C(C)(C)O)nc1CO (stereo not shown) :: 1000 to 5000 nM
3. CNS(=O)(=NC(=O)Nc1c2c(cc3c1CCC3)CCC2)c1cnc(C(C)(C)O)s1 (stereo not shown) :: 5000 to 30000 nM

## Input Recorded IC50 of CN(C)Cc1ccc(S(N)(=O)=NC(=O)Nc2c3c(cc4c2CCC4)CCC3)cc1 (stereo not shown) , please.
## Output 40 to 200 nM

## Input Recorded IC50 of Cc1oc(S(N)(=O)=NC(=O)Nc2c3c(cc4c2CCC4C)CCC3)cc1C(C)(C)O (single isomer, unassigned) , please.
## Output 8 to 40 nM

## Input Recorded IC50 of CC(C)(O)c1cnc(S(N)(=O)=NC(=O)Nc2c3c(cc4c2OCC4)CCC3)s1 (stereo not shown) , please.
## Output 40 to 200 nM

## Input Recorded IC50 of COC(C)(C)c1ncc(S(N)(=O)=NC(=O)Nc2c3c(cc4c2CCC4)CCC3)s1 (stereo not shown) , please.
## Output 40 to 200 nM

----------
Below, each entry is listed with its recorded IC50.
tested on: IL-1β production in PMA-differentiated THP-1 cells; test: IL-1β production in PMA-differentiated THP-1 cells stimulated with gramicidin (hTHP-1 assay, 2% fetal bovine serum; Procedures 1-3); type: cell-based, human; settings: Homo sapiens, THP-1, hTHP-1 assay containing 2% fetal bovine serum; class symbols; read-out: hTHP-1 IC50 (Average IC50 of compounds in hTHP-1 assay)

1) CC(C)(O)c1ncc(S(N)(=O)=NC(=O)Nc2c3c(cc4c2CC4)CCC3)s1 (centres unmarked) :: 8 to 40 nM
2) CC(C)(O)c1csc(S(N)(=O)=NC(=O)Nc2c3c(cc4c2OCC4)CCC3)n1 (centres unmarked) :: 8 to 40 nM
3) CC(C)c1cc(C#N)cc(C(C)C)c1NC(=O)N=S(N)(=O)c1cc(C#N)cc(C(C)(C)O)c1 (centres unmarked) :: 200 to 1000 nM
4) Cc1oc(S(N)(=O)=NC(=O)Nc2c3c(c(F)c4c2CCC4)CCC3)cc1C(C)(C)O (centres unmarked) :: < 8 nM
5) CN(C)C(C)(C)c1ccc(S(N)(=O)=NC(=O)Nc2c3c(cc4c2CCC4)CCC3)cc1 (centres unmarked) :: 40 to 200 nM
6) COC(C)(C)c1ccc(S(N)(=O)=NC(=O)Nc2c3c(cc4c2CCC4)CCC3)cc1 (centres unmarked) :: 200 to 1000 nM

## Input Find the measured IC50: item CN(C)Cc1ccc(S(N)(=O)=NC(=O)Nc2c3c(cc4c2CCC4)CCC3)nc1 (centres unmarked) , target or system IL-1β production in PMA-differentiated THP-1 cells.
## Output 200 to 1000 nM

## Input Find the measured IC50: item CC(C)c1cc(F)cc(C(C)C)c1NC(=O)N=S(N)(=O)c1ccc(C(C)(C)O)s1 (centres unmarked) , target or system IL-1β production in PMA-differentiated THP-1 cells.
## Output 200 to 1000 nM

Data origin: patent US11724992B2
